Where a SMILES comes first, the peptide text is derived from it.
Note to self: values exactly at 2 are y. So logP at or above 2 is y, below is n.

Worked set:
compound=Cc1[nH]cnc1CSCCNC1=C([N+](=O)[O-])CCN1 assigned_category=n
compound=CN(c1nc2ccccc2s1)C1CCN(CCCCOc2ccc(F)cc2)CC1 assigned_category=y
compound="CC(C)C(NC(=O)C(N)Cc1ccccc1)C(=O)NC(Cc1ccc(O)cc1)C(=O)NC(Cc1ccccc1)C(=O)O (stereo not given) (H-FVYF-OH; configuration not given here)" assigned_category=n
compound=CCOc1cc2ncnc(Nc3cccc(F)c3)c2cc1OCC assigned_category=y
compound="NC(Cc1ccccc1)C(=O)NCC(=O)NCC(=O)NC(Cc1ccccc1)C(=O)O (stereo not given) (H-FGGF-OH; configuration not given here)" assigned_category=n
compound=Cc1c(O)c(=O)ccn1CCCOC(=O)c1ccc(N(C)C)cc1 assigned_category=n
compound=CNC(=O)Cn1cccc(O)c1=O assigned_category=n
compound=Cc1ccccc1C=[N+]([O-])C(C)(C)C assigned_category=n
compound=Cc1cccc(Nc2ccncc2S(=O)(=O)NC(=NC#N)NC(C)C)c1 assigned_category=n
compound="CCCCC(C)N=C=S (stereo not given)" assigned_category=y

Prompt: Can `CCCC(=NOCC)C1=C(O)CC2(CCCC2)OC1=O` be said to have logP at or above 2?
Response: y

Prompt: Can `CC(C)(C)NCc1ccc(S(=O)(=O)c2csc(S(N)(=O)=O)c2)cc1` be said to have logP at or above 2?
Response: n

Prompt: Can `CCOc1cccc(CNc2[nH]cnc3ncnc2-3)c1` be said to have logP at or above 2?
Response: y

Prompt: Can `Cc1oc2cc3oc(=O)ccc3c(C)c2c1C` be said to have logP at or above 2?
Response: y

Prompt: Can `O=C(Nc1ncnc2nc[nH]c12)c1ccccc1` be said to have logP at or above 2?
Response: n

Prompt: Can `CC(=O)c1cccc(CNc2[nH]cnc3ncnc2-3)c1` be said to have logP at or above 2?
Response: n

Prompt: Can `O=c1[nH]c2cc(Cl)ccc2c(O)c1-c1cccc(Oc2ccccc2)c1` be said to have logP at or above 2?
Response: y

Prompt: Can NC1CCN(c2nc3c(cc2F)c(=O)c(C(=O)O)cn3-c2ccc(F)cc2F)C1 (stereo not given) be said to have logP at or above 2?
Response: n

Prompt: Can `COc1cccc(-n2nnnc2N)c1` be said to have logP at or above 2?
Response: n

Prompt: Can `C=CCNC(=O)c1[nH]cc(-c2ccc(Cl)cc2)c1N1CCOCC1` be said to have logP at or above 2?
Response: y

Prompt: Can C=C1CCCC2(C)CCC(C(C)(C)O)CC12 (stereo not given) be said to have logP at or above 2?
Response: y

Prompt: Can COc1ccc(O)c(C2=NC(C(=O)O)CS2)c1 (stereo not given) be said to have logP at or above 2?
Response: n

Prompt: Can CC(=O)OC1CCCC2(C)CCC(C(C)(C)OC(C)=O)CC12 (stereo not given) be said to have logP at or above 2?
Response: y

Prompt: Can `Clc1cc(-c2ccc(Cl)c(Cl)c2Cl)cc(Cl)c1Cl` be said to have logP at or above 2?
Response: y

Prompt: Can `S=C=NCCCCCCCCCCc1ccccc1` be said to have logP at or above 2?
Response: y

Prompt: Can `O=C1C=C(N2CCCC2)C(=O)N1c1ccc(F)cc1` be said to have logP at or above 2?
Response: y

Prompt: Can CC(=O)NC(CCCN(Cc1ccccc1)C(=O)N(CCCl)N=O)C(=O)NCc1ccccc1 (stereo not given) be said to have logP at or above 2?
Response: n

Prompt: Can `CC(C)c1cccc(O)c(=O)c1` be said to have logP at or above 2?
Response: n

Prompt: Can `CCCC(=NOCC)C1=C(O)CC2(CCSCC2)OC1=O` be said to have logP at or above 2?
Response: y

Prompt: Can `O=C1C=C(N2CCCCC2)CN1c1ccc(Cl)cc1` be said to have logP at or above 2?
Response: y
